target: Sialic acid-binding Ig-like lectin 9 (Homo sapiens) (UniProt Q9Y336); assay: Hs-Siglec9 ALPHAscreen SOP 20170721; parameters: scale not given: direction of the effect not stated beside the values; settings: 10 µM
Sequence (Q9Y336 whole entry): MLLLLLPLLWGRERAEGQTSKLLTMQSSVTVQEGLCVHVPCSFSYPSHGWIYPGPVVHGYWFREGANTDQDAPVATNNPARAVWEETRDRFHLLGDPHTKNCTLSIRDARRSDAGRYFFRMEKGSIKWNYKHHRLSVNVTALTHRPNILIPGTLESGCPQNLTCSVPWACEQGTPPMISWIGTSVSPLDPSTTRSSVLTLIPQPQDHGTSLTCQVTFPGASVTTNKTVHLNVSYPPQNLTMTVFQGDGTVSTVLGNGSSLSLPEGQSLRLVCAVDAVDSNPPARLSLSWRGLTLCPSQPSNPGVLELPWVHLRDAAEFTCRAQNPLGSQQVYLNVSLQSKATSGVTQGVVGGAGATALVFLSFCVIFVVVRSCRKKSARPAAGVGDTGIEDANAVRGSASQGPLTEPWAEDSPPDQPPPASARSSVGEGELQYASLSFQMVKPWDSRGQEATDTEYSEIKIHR
Reported Percent Effect values for a set of molecules
Dear colleague, please return just the value in %, with no unit written.

MOLECULE	Percent Effect [%]
O=C(c1ccccn1)N1C[C@@H]2CC[C@H](C1)N(C(=O)CCc1ccsc1)C2	8.15
Cc1nccn1CCCC(=O)N1CCC(Nc2cccnn2)CC1	11.7

Let me check: O=C(NCc1cnc2n1CCN(Cc1ccsc1)CC2)C1CCC1 , system Sialic acid-binding Ig-like lectin 9 (Homo sapiens) (UniProt Q9Y336), measured Percent Effect is 4.49

Let me check: CN(CCc1ccccc1)c1cnn(CC(=O)N2CCSCC2)c(=O)c1 , system Sialic acid-binding Ig-like lectin 9 (Homo sapiens) (UniProt Q9Y336), measured Percent Effect is 12.4

Let me check: COc1c(C)cnc(CN2CCC(N(C)C(C)C(N)=O)CC2)c1C (stereo unspecified) , system Sialic acid-binding Ig-like lectin 9 (Homo sapiens) (UniProt Q9Y336), measured Percent Effect is -8.74

Let me check: CCN(C)c1ccc(C(=O)N(CCOC)Cc2ccccn2)cc1 , system Sialic acid-binding Ig-like lectin 9 (Homo sapiens) (UniProt Q9Y336), measured Percent Effect is 21.4

* * *

biological target: Arginase-2, mitochondrial (Homo sapiens); assay: in vitro enzyme assay to detect the production of urea directly proportional to the activity of Arginase II; assay type: functional; design: scale not given: in the data most compounds retested in dose-response had high values; details: 33.3 µM
EXPERIMENTAL_READOUT: Percent Effect (%)
Dear colleague, please return just the value in %, with no unit written.

COMPOUND	EXPERIMENTAL_READOUT	MEASURED
O=S(=O)(c1cccs1)N1CCCn2nnc(CN3CCCCC3)c2C1	Percent Effect	-43.5
O=C1N(c2ccc(F)cc2)Cc2nc(=O)n(Cc3cccc(Cl)c3)n21	Percent Effect	-3.35
O=C(CCCc1ccc(F)cc1)N1C[C@@H](CN2CCOCC2)[C@@H](CO)C1	Percent Effect	1.82
Cc1noc2ncc(C(=O)N(CC3CCOC3)C3CC3)cc12 (stereo unspecified)	Percent Effect	3.45
c1ccc(OCC2CC3(CCN(Cc4ccncc4)CC3)CO2)nc1 (stereo unspecified)	Percent Effect	-4.4

Please turn your attention to the following entry.
# Percent Effect of CC(=O)NCC1CCN(C(=O)c2csc(-c3ccc(C)cc3C)n2)CC1 = 0.554

* * *

Molecular target: Arginase-2, mitochondrial (Homo sapiens)
Sequence (whole entry): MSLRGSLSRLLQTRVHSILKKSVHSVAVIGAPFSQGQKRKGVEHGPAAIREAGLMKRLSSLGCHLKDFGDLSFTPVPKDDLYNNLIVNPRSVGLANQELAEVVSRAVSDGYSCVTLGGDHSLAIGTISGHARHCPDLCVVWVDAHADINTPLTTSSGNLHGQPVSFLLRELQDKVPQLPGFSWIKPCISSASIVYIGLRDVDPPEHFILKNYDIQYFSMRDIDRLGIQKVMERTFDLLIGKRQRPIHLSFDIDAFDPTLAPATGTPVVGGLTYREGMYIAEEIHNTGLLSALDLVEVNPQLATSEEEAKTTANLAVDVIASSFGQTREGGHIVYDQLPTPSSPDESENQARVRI
Test: in vitro enzyme assay to detect the production of urea directly proportional to the activity of Arginase II
Type: functional
Parameters: scale not given: direction of the effect not stated beside the values
Conditions: 33.3 µM
EXPERIMENTAL_READOUT: Percent Effect
Give the value; after it, write the unit.

Example cases with answers are listed next.
COMPOUND	STUDY_TARGET	EXPERIMENTAL_READOUT	MEASURED
Cc1cc(C[C@@H]2COC[C@@H]2NC(=O)CN2CCCC2)on1	Arginase-2, mitochondrial (Homo sapiens)	Percent Effect	-1.82%
COC(=O)c1cccc(NS(=O)(=O)c2cnc(NC(C)=O)s2)c1	Arginase-2, mitochondrial (Homo sapiens)	Percent Effect	-8.63%
O=C(CN1CCCCC1Cn1cncn1)NC1CCN(C2CC2)CC1 (stereo unspecified)	Arginase-2, mitochondrial (Homo sapiens)	Percent Effect	-1.43%
CC(NC(=O)c1nc(=O)[nH][nH]1)c1ccc(OCC2CC2)c(F)c1 (stereo unspecified)	Arginase-2, mitochondrial (Homo sapiens)	Percent Effect	-3.55%
Cc1cnn(CC2CCCN2C(=O)c2cn(-c3ccccc3)nc2C)c1 (stereo unspecified)	Arginase-2, mitochondrial (Homo sapiens)	Percent Effect	-3.61%
Fc1ccc(CCN2CCC(c3nnc(-c4cccnc4)o3)CC2)cc1	Arginase-2, mitochondrial (Homo sapiens)	Percent Effect	-5.8%

# Percent Effect of Cc1nc(-c2ccccc2)n(CC(=O)NCC(C)C)n1 = -4.01%

# Percent Effect of CC(C#N)CSc1ccccc1NCC(=O)Nc1ccc(F)cc1 (stereo unspecified) = 1.82%

# Percent Effect of CS(=O)(=O)N1CCCC12CCCN(S(=O)(=O)c1ccc(F)cc1)C2 (stereo unspecified) = 1.24%

# Percent Effect of CCn1nccc1CNC(=O)NC1CCCCC1 = 0%

# Percent Effect of COc1ccc(C(=O)Nc2cnn(CC(=O)NC3CCCC3)c2)c(O)c1 = 0.798%
